Source of measurements: paper PMC7865522

Below, each entry is listed alongside its reported % inhibition of control activity, PI3K (Eurofins).
molecular target: PI3K (Homo sapiens); assay: Eurofins in vitro kinase inhibition assay (HTRF, PIP3 displacement); format: biochemical; parameters: purchased Eurofins Cerep (contract assay); settings: compound 20 µM; mean (SD); above 50% significant, 25-50% weak
Sequence (P42336 whole entry): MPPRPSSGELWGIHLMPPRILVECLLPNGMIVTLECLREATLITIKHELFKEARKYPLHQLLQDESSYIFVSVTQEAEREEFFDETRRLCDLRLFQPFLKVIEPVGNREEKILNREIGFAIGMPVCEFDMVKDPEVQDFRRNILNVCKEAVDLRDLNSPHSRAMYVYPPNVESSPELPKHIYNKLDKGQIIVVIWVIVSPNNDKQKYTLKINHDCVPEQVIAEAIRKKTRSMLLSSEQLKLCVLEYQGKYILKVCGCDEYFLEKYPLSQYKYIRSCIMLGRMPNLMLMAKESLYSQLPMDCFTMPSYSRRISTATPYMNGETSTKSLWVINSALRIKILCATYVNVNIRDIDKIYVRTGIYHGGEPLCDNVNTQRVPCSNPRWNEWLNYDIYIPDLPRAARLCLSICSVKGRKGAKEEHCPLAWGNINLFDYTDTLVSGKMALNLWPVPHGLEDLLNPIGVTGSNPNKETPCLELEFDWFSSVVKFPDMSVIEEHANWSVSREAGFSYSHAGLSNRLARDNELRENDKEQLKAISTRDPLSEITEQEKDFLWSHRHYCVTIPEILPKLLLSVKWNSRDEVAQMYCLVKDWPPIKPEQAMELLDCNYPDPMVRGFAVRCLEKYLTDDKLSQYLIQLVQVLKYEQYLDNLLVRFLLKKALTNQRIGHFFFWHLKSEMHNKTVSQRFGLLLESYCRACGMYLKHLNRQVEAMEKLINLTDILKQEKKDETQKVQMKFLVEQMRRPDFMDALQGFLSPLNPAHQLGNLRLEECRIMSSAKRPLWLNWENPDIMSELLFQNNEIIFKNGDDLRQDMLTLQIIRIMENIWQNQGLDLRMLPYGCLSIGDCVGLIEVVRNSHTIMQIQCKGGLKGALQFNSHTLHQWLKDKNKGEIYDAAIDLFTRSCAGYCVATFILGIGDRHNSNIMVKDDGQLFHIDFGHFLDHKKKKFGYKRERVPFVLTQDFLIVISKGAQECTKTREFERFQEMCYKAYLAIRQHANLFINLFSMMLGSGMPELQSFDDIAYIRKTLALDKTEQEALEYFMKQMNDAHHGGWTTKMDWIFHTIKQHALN
Sequence (P27986 whole entry partner): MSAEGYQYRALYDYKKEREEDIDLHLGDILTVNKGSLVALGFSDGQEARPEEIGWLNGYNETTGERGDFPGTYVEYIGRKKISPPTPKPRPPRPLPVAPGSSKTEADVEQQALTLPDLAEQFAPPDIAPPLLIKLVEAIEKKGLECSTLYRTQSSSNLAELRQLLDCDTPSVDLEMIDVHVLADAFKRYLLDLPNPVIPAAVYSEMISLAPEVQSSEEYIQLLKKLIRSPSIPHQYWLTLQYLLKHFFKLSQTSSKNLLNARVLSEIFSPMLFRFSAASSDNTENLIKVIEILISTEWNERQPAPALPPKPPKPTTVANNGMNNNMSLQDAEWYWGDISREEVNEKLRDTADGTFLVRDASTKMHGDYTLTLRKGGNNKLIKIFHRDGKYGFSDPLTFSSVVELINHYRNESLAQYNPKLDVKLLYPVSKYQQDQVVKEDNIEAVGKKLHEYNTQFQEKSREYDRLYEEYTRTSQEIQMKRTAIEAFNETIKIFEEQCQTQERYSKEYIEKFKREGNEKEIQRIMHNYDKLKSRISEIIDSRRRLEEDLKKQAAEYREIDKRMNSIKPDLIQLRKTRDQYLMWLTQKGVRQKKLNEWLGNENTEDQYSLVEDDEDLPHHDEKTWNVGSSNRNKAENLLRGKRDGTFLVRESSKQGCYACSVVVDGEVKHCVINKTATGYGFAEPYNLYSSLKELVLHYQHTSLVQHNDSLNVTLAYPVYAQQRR

Query block: Need % inhibition of control activity, PI3K (Eurofins) of `COCCCNC(=O)c1nc2c3c4c(sc3ncn2n1)COC(C)(C)C4` , thanks.
Result block: -0.2 (0.4) % inhibition

Query block: Ok, now `CC(=O)c1cc(CC(=O)N(C)C[C@H]2CCCCO2)cs1`
Result block: 0.7 (0.8) % inhibition

Query block: Ok, now `O=C(O)c1cncnc1NCc1nc(-c2cnccn2)n[nH]1`
Result block: 2.1 (0.4) % inhibition

###

target: BRAF (Homo sapiens); construct: purchased DiscoverX (KINOMEscan service); host or cells: E. coli BL21-derived host (T7 phage) or HEK-293; experiment: DiscoverX KINOMEscan competition binding assay; conditions: compound 10 µM; lower values = higher affinity; below 35% = significant binding
Sequence (P15056 whole entry): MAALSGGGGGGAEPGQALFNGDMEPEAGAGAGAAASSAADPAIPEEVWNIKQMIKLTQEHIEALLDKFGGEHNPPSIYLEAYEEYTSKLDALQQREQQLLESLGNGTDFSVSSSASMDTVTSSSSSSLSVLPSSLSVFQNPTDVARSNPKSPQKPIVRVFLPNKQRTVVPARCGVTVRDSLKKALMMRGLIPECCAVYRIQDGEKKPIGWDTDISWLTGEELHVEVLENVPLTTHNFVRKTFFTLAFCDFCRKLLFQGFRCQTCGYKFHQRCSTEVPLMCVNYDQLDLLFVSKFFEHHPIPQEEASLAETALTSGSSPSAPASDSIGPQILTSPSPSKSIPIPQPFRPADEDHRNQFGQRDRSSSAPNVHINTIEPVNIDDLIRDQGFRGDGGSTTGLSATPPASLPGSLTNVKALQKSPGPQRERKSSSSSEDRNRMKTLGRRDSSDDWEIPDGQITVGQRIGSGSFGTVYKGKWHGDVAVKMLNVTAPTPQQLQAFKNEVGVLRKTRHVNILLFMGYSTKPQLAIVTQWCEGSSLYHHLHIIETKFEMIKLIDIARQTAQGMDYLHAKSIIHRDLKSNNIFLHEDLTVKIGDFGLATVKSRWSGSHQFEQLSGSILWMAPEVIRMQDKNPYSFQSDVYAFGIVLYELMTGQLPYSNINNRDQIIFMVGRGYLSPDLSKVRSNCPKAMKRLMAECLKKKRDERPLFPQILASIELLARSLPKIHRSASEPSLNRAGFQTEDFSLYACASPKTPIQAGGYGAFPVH
OBSERVATION TYPE: % control, BRAF (DiscoverX) (% control)
Field: numeric (% control). Do not append units.

Some entries whose results are on file:
Cc1cc(COC(=O)c2cnc3c(cnn3Cc3ccccc3)c2)on1 [K001MM013] : 100
O=C(Oc1ccc2c3c(c(=O)oc2c1)CCC3)c1cccc(Cl)c1 [DS76514] : 89
CN(C)S(=O)(=O)c1cccc(C2=N/C(=C\c3cccc(F)c3)C(=O)O2)c1 [DS74631] : 100

Query block: Need % control, BRAF (DiscoverX) of O=C(Cn1cnc2c(cnn2CCO)c1=O)NCc1ccccc1 [DS05168] , thanks.
Result block: 98

Query block: Ok, now CCOCC(C)(C)NC(=O)Nc1cc(F)ccc1OC [K001MM006]
Result block: 100

Query block: Ok, now Cc1cccc(NC(=O)N[C@H](C)[C@H](C)N2CCOCC2)n1 [K001MM007]
Result block: 87

Query block: Ok, now COCCCNC(=O)c1nc2c3c4c(sc3ncn2n1)COC(C)(C)C4 [DS11689]
Result block: 88

Query block: Ok, now CCc1nnc(NC(=O)c2nn(-c3ccc(C)cc3)ccc2=O)s1 [DS59212]
Result block: 100

Query block: Ok, now O=C(O)c1cncnc1NCc1nc(-c2cnccn2)n[nH]1 [DS74417]
Result block: 86

Query block: Ok, now CC(C)n1ccc(=O)nc1SC1CCN(c2ccccc2F)C1=O (stereo not shown) [DS99367]
Result block: 100

###

Below, each entry is listed alongside its reported % control, EGFR (DiscoverX).
target: EGFR (Homo sapiens, UniProt P00533); construct: purchased DiscoverX (KINOMEscan service); host or cells: E. coli BL21-derived host (T7 phage) or HEK-293; test: DiscoverX KINOMEscan competition binding assay; details: compound 10 µM; lower values = higher affinity; below 35% = significant binding
Sequence (P00533 25-1210): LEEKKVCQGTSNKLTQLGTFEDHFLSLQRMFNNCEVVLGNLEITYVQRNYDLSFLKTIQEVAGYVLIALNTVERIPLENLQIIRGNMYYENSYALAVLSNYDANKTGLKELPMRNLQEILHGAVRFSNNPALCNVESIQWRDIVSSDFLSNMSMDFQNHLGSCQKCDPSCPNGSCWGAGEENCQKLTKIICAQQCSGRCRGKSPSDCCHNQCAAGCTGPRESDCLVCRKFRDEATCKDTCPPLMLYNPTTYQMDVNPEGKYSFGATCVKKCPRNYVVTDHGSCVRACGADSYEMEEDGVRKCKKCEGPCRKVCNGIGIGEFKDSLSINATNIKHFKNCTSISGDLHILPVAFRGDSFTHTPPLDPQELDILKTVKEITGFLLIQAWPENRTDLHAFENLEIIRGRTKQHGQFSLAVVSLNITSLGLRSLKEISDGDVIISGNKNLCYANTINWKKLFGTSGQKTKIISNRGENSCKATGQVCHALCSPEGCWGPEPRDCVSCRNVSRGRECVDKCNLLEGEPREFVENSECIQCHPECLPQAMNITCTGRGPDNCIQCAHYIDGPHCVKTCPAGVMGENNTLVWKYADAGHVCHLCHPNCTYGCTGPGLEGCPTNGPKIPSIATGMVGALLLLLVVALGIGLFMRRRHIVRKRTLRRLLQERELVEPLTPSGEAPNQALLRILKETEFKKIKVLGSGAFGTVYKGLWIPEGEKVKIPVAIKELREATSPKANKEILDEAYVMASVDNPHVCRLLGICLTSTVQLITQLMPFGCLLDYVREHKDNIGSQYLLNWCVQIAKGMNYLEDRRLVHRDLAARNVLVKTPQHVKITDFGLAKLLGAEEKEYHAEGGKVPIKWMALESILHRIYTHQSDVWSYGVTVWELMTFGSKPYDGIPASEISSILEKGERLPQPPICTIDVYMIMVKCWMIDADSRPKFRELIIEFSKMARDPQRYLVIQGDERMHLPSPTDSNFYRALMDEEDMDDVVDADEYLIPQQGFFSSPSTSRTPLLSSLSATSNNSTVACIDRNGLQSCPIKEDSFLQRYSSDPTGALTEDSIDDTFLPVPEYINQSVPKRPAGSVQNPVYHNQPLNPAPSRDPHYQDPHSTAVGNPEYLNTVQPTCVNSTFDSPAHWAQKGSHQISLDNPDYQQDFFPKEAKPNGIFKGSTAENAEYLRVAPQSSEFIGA
Field: numeric (% control). Do not append units.

Some entries whose results are on file:
CCc1nccc(-c2nccn2C(Cn2cccn2)c2ccccc2)n1 (centres unmarked) : 100
Cc1cc(COC(=O)c2cnc3c(cnn3Cc3ccccc3)c2)on1 : 100
Nc1nc(N2CCC[C@H](Cc3nc4ccccc4[nH]3)C2)c2nc[nH]c2n1 : 95
CC(C)OCC(O)CN1CCN(C(=O)c2cccc(Cl)c2)CC1 (centres unmarked) : 97

Next molecule, % control, EGFR (DiscoverX) to be filled in.
Query block: Need % control, EGFR (DiscoverX) of `CC(=O)c1cc(CC(=O)N(C)C[C@H]2CCCCO2)cs1` , thanks.
Result block: 100

###

Biological target: EGFR (Homo sapiens)
Construct: purchased DiscoverX (KINOMEscan service); host or cells: E. coli BL21-derived host (T7 phage) or HEK-293
Experiment: Eurofins in vitro kinase inhibition assay
Format: biochemical
Details: compound 20 µM; mean (SD); above 50% significant, 25-50% weak
Method: Kinase inhibition assays for EGFR, ErbB2, PI3K and BRAF were carried out by Eurofins Cerep following the protocols of Weber et al. (EGFR), Quian et al. (ErbB2), Sinnamon et al. (PI3K) and Kupcho et al. (BRAF). Briefly, except for PI3K, compounds were incubated with the respective kinase, ATP, and a substrate analog, and the effect of each compound on phosphorylation was measured. […] Finally, inhibition of the respective kinases is calculated as the percentage inhibition of control activity. […]
Below, each entry is listed alongside its reported % inhibition of control activity, EGFR (Eurofins).

Some entries whose results are on file:
Cc1[nH]c2nc3c(c(=O)n(Cc4ccccc4)c(=O)n3C)n2c1C : 16.6 (0.4) % inhibition
Cc1ccc(-n2cnnn2)cc1NC(=O)NC1CC1 : 2.4 (14.7) % inhibition
CC(C)n1ccc(=O)nc1SC1CCN(c2ccccc2F)C1=O (stereo not shown) : 17.3 (0.1) % inhibition
O=C(O)c1cncnc1NCc1nc(-c2cnccn2)n[nH]1 : 18 (3.2) % inhibition
CCc1nccc(-c2nccn2C(Cn2cccn2)c2ccccc2)n1 (stereo not shown) : 10.7 (0.4) % inhibition

Query block: % inhibition of control activity, EGFR (Eurofins) of `CCc1nnc(NC(=O)c2nn(-c3ccc(C)cc3)ccc2=O)s1` on EGFR (Homo sapiens)?
Result block: 7.8 (3.3) % inhibition

Query block: Ok, now `C[C@H](COCC(F)(F)F)NC(=O)Cc1n[nH]c(=O)c2ccccc12`
Result block: 3.4 (1.8) % inhibition

Query block: Ok, now `CN(C)S(=O)(=O)c1cccc(C2=N/C(=C\c3cccc(F)c3)C(=O)O2)c1`
Result block: 11.3 (4.5) % inhibition

Query block: Ok, now `Cc1ccc(/C=C2\N=C(c3cccc(S(=O)(=O)N(C)C)c3)OC2=O)s1`
Result block: 23.3 (4.2) % inhibition

Query block: Ok, now `CC(=O)c1cc(CC(=O)N(C)C[C@H]2CCCCO2)cs1`
Result block: 23.4 (0.6) % inhibition

###

biological target: PI3K (Homo sapiens, UniProt P42336); assay: DiscoverX KINOMEscan competition binding assay; parameters: purchased DiscoverX (KINOMEscan service); host or cells: E. coli BL21-derived host (T7 phage) or HEK-293; details: compound 10 µM; lower values = higher affinity; below 35% = significant binding
Sequence (P42336 whole entry): as the sequence (P42336 whole entry) above
OBSERVATION TYPE: % control, PI3K (DiscoverX) (% control)
Field: numeric (% control). Do not append units.

Some entries whose results are on file:
COc1ccc(-c2nn(C(C)=O)c3c2C(=O)CC(C)(C)C3)cc1 : 100
CCOCCCNC(=O)c1nc2c3c4c(sc3ncn2n1)CC[C@@H](C)C4 : 89

Next compound, % control, PI3K (DiscoverX) to be filled in.
Query block: Need % control, PI3K (DiscoverX) of `Cc1[nH]c2nc3c(c(=O)n(Cc4ccccc4)c(=O)n3C)n2c1C` , thanks.
Result block: 66

###

biological target: EGFR (Homo sapiens); construct: purchased DiscoverX (KINOMEscan service); host or cells: E. coli BL21-derived host (T7 phage) or HEK-293; experiment: DiscoverX KINOMEscan competition binding assay; conditions: compound 10 µM; lower values = higher affinity; below 35% = significant binding
OBSERVATION TYPE: % control, EGFR (DiscoverX) (% control)
Field: numeric (% control). Do not append units.

Some entries whose results are on file:
CN(C)S(=O)(=O)c1cccc(C2=N/C(=C\c3cccc(F)c3)C(=O)O2)c1 : 97
CCOCC(C)(C)NC(=O)Nc1cc(F)ccc1OC : 96
CC1(C)C2CC=C(COC(=O)c3cnn4cccnc34)C1C2 (stereo not shown) : 90
Cc1cccc(NC(=O)N[C@H](C)[C@H](C)N2CCOCC2)n1 : 90
CC(C)n1ccc(=O)nc1SC1CCN(c2ccccc2F)C1=O (stereo not shown) : 93
O=C(NCC1CC1)Nc1ccc(N2CCOC2=O)cc1 : 100
Cc1ccc(-n2cnnn2)cc1NC(=O)NC1CC1 : 100
COC(=O)Cc1ccc(Oc2ncnc3sc4c(c23)CC[C@@H](C)C4)cc1 (racemic) : 17
COCCCNC(=O)c1nc2c3c4c(sc3ncn2n1)CC[C@H](C)C4 : 100

Next compound, % control, EGFR (DiscoverX) to be filled in.
Query block: Need % control, EGFR (DiscoverX) of `Cc1cc(=O)n2nc(N(C)CC(=O)NCc3cccs3)sc2n1` , thanks.
Result block: 96

###

Biological target: CDK2 (Homo sapiens, UniProt P24941)
Construct: purchased DiscoverX (KINOMEscan service); host or cells: E. coli BL21-derived host (T7 phage) or HEK-293
Experiment: DiscoverX KINOMEscan competition binding assay
Details: compound 10 µM; lower values = higher affinity; below 35% = significant binding
Method: Ligand binding experiments for the molecules selected from Profiles 1 and 2 towards nine kinases (EGFR, ErbB2, LCK, CDK2, BRAF, MET, p38α, PI3K and VEGFR2) and for molecules selected from Profiles 3 and 4 towards four kinases (EGFR, ErbB2, BRAF and VEGFR2) were carried out by DiscoverX using the supplied protocol as described in the Supplementary Materials. […]
Below, each entry is listed alongside its reported % control, CDK2 (DiscoverX).
State the value with its unit after it.

O=C(O)c1cncnc1NCc1nc(-c2cnccn2)n[nH]1 : 100 % control
CC1(C)C2CC=C(COC(=O)c3cnn4cccnc34)C1C2 (stereo not shown) : 99 % control

Query block: Need % control, CDK2 (DiscoverX) of `CCc1nnc(NC(=O)c2nn(-c3ccc(C)cc3)ccc2=O)s1` , thanks.
Result block: 100 % control

Query block: Ok, now `C[C@H](COCC(F)(F)F)NC(=O)Cc1n[nH]c(=O)c2ccccc12`
Result block: 99 % control

Query block: Ok, now `O=C(Oc1ccc2c3c(c(=O)oc2c1)CCC3)c1cccc(Cl)c1`
Result block: 100 % control

Query block: Ok, now `Cc1ccc(-n2cnnn2)cc1NC(=O)NCC1CC1`
Result block: 100 % control

Query block: Ok, now `COCCCNC(=O)c1nc2c3c4c(sc3ncn2n1)COC(C)(C)C4`
Result block: 100 % control

Query block: Ok, now `CC(=O)c1cc(CC(=O)N(C)C[C@H]2CCCCO2)cs1`
Result block: 100 % control

Query block: Ok, now `Cc1cc(=O)n2nc(N(C)CC(=O)NCc3cccs3)sc2n1`
Result block: 100 % control

Query block: Ok, now `O=C(Cn1cnc2c(cnn2CCO)c1=O)NCc1ccccc1`
Result block: 99 % control
